Test: Human HepG2 cell viability assay in 384 well format
Assay type: toxicity, cell-based
Set-up: dose 125 nL, time 70.5 hour; concentration not given beside the values
Details: HepG2 cells, read-out: Inhibition
# cytotoxicity at 70.5 h per record follows
Numeric answer only, unit % assumed.

Recorded results for 5 compounds are shown here.
Cn1nnnc1SCCC(=O)NCC(C)(C)c1ccccc1F : 19.1
CN(C)C(=O)NCc1nnn2c1CN(CC1CCOCC1)CCC2 : 0.222
COc1ccc2c(c1)nc1n2[C@@H](CN(C2CCC2)C2CCC2)COC1 : 1.4
COCC1CN(S(=O)(=O)C2CC2)Cc2ncn(CC3CC3)c21 (stereo unspecified) : -1.47
CC1COCCN1Cc1nc(-c2cccc(C(F)(F)F)c2)no1 (stereo unspecified) : -2.89

Proceeding to the next compound to report its cytotoxicity at 70.5 h.
Exercise: Which measured cytotoxicity at 70.5 h value corresponds to CCC(C)N(C)C(=O)Nc1ccc(N2CCSCC2)cc1C (stereo unspecified) ?
Key: -5.01

* * *

Experiment: Human HepG2 cell viability assay in 384 well format
Format: toxicity, cell-based
Design: dose 125 nL, time 70.5 hour; concentration not given beside the values
Details: HepG2 cells, read-out: Inhibition
# cytotoxicity at 70.5 h per record follows
Numeric answer only, unit % assumed.

Recorded results for 5 molecules are shown here.
Cc1cccc(CN2CCc3cc(C(=O)O)c(N(C)C)nc3CC2)n1 : -5.66
COCc1nc(CN2CC(=O)N(C)c3ccccc3C2=O)no1 : -5.63
CCc1nc(CC)n(CC(=O)N(C)CC(F)(F)F)n1 : -4.55
CCn1ncnc1CN1CCC(CNC(=O)c2cccc(C)n2)C1 (stereo unspecified) : -5.47
Cc1cccc(C2CCCN(C(=O)CN3CCOC3=O)C2)c1 (stereo unspecified) : -17.6

Exercise: Which measured cytotoxicity at 70.5 h value corresponds to "Cn1cc(-c2cnc(N3CCOCC3)nc2)cc1C(=O)N1CCOCC1" ?
Key: -22

* * *

# cytotoxicity at 70.5 h per record follows
Test: Human HepG2 cell viability assay in 384 well format
Format: toxicity, cell-based
Set-up: dose 125 nL, time 70.5 hour; concentration not given beside the values
Settings: HepG2 cells, read-out: Inhibition
Please answer in the form of a number followed by its unit of measurement.

Recorded results for 10 compounds are shown here.
Cc1csc(C2(NCCC(=O)N3CCOCC3)CCCC2)n1 : 4.83%
NC(=O)CN1CCc2c(Br)ccc(F)c2C1 : 3.38%
c1coc(-c2noc(CN3CCCC3Cn3cncn3)n2)c1 (stereo not drawn) : -8.45%
O=C(CCn1cnnn1)N1CCCC(CO)(CCCc2ccccc2)C1 (stereo not drawn) : -1.63%
O=S(=O)(C1CC1)N1C[C@@H]2COC[C@]2(COc2ccccn2)C1 : -18.1%
CC1CCc2c(c3ccccc3[nH]c2=O)O1 (stereo not drawn) : -6.86%
O=C(c1ncoc1C1CCCO1)N1CCC2(CCCCC2)CC1 (stereo not drawn) : -3.26%
O=C1CC(N2CCN(c3ccccc3O)CC2)C(=O)N1Cc1cccs1 (stereo not drawn) : -12.2%
Cc1cc(F)c(S(=O)(=O)Nc2ccn(CCC#N)n2)cc1F : -16.3%
CNS(=O)(=O)c1cccc(S(=O)(=O)Nc2ncc(C)s2)c1 : 3.06%

Exercise: Which measured cytotoxicity at 70.5 h value corresponds to "Cc1cccc(CN2C(=O)CC[C@@H]3[C@H]2CCN3Cc2ccc(C)s2)n1" ?
Key: -18.1%

Exercise: Would you mind doing Cn1c(Cn2ccnc2)nnc1C1CCCN(CC(C)(C)C)C1 (stereo not drawn) as well?
Key: -8.29%

Exercise: Would you mind doing "CCc1cc(N(C)Cc2nonc2C)nc(N(C)C)n1" as well?
Key: 7.36%

Exercise: Would you mind doing "CO[C@H]1C[C@@H]2CN(C(=O)c3ccc(C)s3)C[C@@H]2C1" as well?
Key: -4.22%

* * *

Experiment: Human HepG2 cell viability assay in 384 well format
Format: toxicity, cell-based
Set-up: dose 125 nL, time 70.5 hour; concentration not given beside the values
Details: HepG2 cells, read-out: Inhibition
# cytotoxicity at 70.5 h per record follows
Numeric answer only, unit % assumed.

Recorded results for 5 compounds are shown here.
Cc1nc(N(Cc2ccncc2)CC2CCCO2)c2ccsc2n1 (configuration not stated) : -5.47
Cc1cnc2n(c1=O)CC(C(=O)Nc1ccon1)CS2 (configuration not stated) : -13.7
CC1CCN(CCNC(=O)C(C)n2cncn2)CC1 (configuration not stated) : -2.14
Cc1cccc2[nH]c(C3CCN(C(=O)c4ccc[nH]4)CC3)nc12 : -6.62
CC(C)COCC(C)NC(=O)NCc1cccc(-n2cncn2)c1 (configuration not stated) : -2.93

Exercise: Which measured cytotoxicity at 70.5 h value corresponds to "NC(=O)N1CCCN(CCc2nc(-c3cccc(Cl)c3)no2)CC1" ?
Key: 4.65

Exercise: Would you mind doing CCOC(=O)CCC(=O)NC(C)c1ccc(NC(=O)CC)cc1 (configuration not stated) as well?
Key: -3.08

Exercise: Would you mind doing Cc1cnn(CC(C)NCC(=O)NC2CCOCC2)c1 (configuration not stated) as well?
Key: 18.5

Exercise: Would you mind doing "NC(=O)CCCNC(=O)Cc1csc(Cc2ccccn2)n1" as well?
Key: -135

* * *

Assay: Human HepG2 cell viability assay in 384 well format
Type: toxicity, cell-based
Parameters: dose 125 nL, time 70.5 hour; concentration not given beside the values
Details: HepG2 cells, read-out: Inhibition
# cytotoxicity at 70.5 h per record follows
Numeric answer only, unit % assumed.

Cc1ccc2c(c1)C1(CCN(S(C)(=O)=O)CC1)CN2C(=O)N(C)C : 4.29

Exercise: Which measured cytotoxicity at 70.5 h value corresponds to Cn1c(SCC(O)COCc2ccccc2Cl)nnc1C1CC1 (stereo unspecified) ?
Key: -8.57

Exercise: Would you mind doing "Cc1noc(C)c1CN(C)c1ncnc2ccccc12" as well?
Key: -6.84

Exercise: Would you mind doing "CCc1ncc2c(n1)CN(Cc1cnc(C)cn1)CC2" as well?
Key: -72.8

Exercise: Would you mind doing "O=S(=O)(CCN1CCN(c2ccccc2O)CC1)c1ccc(Cl)cc1" as well?
Key: -14.3

Exercise: Would you mind doing "CC(C)(C)SCCCC(=O)N1CCC(Nc2cccnn2)CC1" as well?
Key: -6.39

* * *

Test: Human HepG2 cell viability assay in 384 well format
Format: toxicity, cell-based
Parameters: dose 125 nL, time 70.5 hour; concentration not given beside the values
Settings: HepG2 cells, read-out: Inhibition
reportedMetric: cytotoxicity at 70.5 h (%)
Numeric answer only, unit % assumed.

Recorded results for 2 molecules are shown here.
N#Cc1c(F)cccc1N1CCC(NS(=O)(=O)c2cccs2)CC1 : 13.5
Cc1cc(C)n(C2CN(CC(O)COc3ccc(F)cc3)C2)n1 (stereo unspecified) : -16.7

Proceeding to the next molecule to report its cytotoxicity at 70.5 h.
Exercise: Which measured cytotoxicity at 70.5 h value corresponds to "Cc1ccc(CNCc2ccc(-n3nc(C)cc3C)nc2)cc1" ?
Key: -6.83

* * *

Assay: Human HepG2 cell viability assay in 384 well format
Assay type: toxicity, cell-based
Parameters: dose 125 nL, time 70.5 hour; concentration not given beside the values
Details: HepG2 cells, read-out: Inhibition
reportedMetric: cytotoxicity at 70.5 h (%)
Numeric answer only, unit % assumed.

Recorded results for 4 molecules are shown here.
COc1ccc(CN2CCN(C(C)=O)CC3(CC(=O)N(C)C3)C2)cc1 (configuration not stated) : -0.064
CSCC[C@@H](CO)Nc1ccc(-c2nc(-c3ccccc3F)no2)cn1 : -6.28
CC(C)c1n[nH]c(C2CN(C(=O)C3=COCC3)CCO2)n1 (configuration not stated) : -3.87
O=C(c1ccncc1F)N1CCc2ncnc(C3CC3)c2CC1 : -1.77

Exercise: Which measured cytotoxicity at 70.5 h value corresponds to "Cc1cnc(-c2nc(C3CCN(Cc4ccccc4O)CC3)no2)cn1" ?
Key: -4.91

* * *

# cytotoxicity at 70.5 h per record follows
Assay: Human HepG2 cell viability assay in 384 well format
Type: toxicity, cell-based
Set-up: dose 125 nL, time 70.5 hour; concentration not given beside the values
Conditions: HepG2 cells, read-out: Inhibition
Numeric answer only, unit % assumed.

CCCNC(=O)CN1CCN(Cc2csc(C(C)(C)C)n2)CC1 : 4.04

Exercise: Which measured cytotoxicity at 70.5 h value corresponds to O=C(NCCN1CCCC(CO)C1)c1ccc2scnc2c1 (stereo not given) ?
Key: -13.1

Exercise: Would you mind doing "O=C(CC1CC1)NCc1cn2c(n1)CN(CC1CC1)CC2" as well?
Key: -19.5

Exercise: Would you mind doing "CC(=O)Nc1ncc(S(=O)(=O)Nc2ccccc2F)s1" as well?
Key: -9.78

* * *

Assay: Human HepG2 cell viability assay in 384 well format
Assay type: toxicity, cell-based
Parameters: dose 125 nL, time 70.5 hour; concentration not given beside the values
Conditions: HepG2 cells, read-out: Inhibition
# cytotoxicity at 70.5 h per record follows
Numeric answer only, unit % assumed.

CS(=O)(=O)CCNC(=O)Nc1ccc(Cl)cc1-n1cccc1 : 23.7
CC(C)Oc1ncccc1CNC(=O)Nc1ccccn1 : 0.773
CC(C)CN1CCC(NC(C)c2ccccc2-n2cccn2)CC1 (stereo unspecified) : -3.22
COc1ccc(NC(=O)NC(C)Cn2cccn2)cn1 (stereo unspecified) : -11.6
CCNc1ccnc(NCc2cn3nc(C)sc3n2)n1 : -15.7

Exercise: Which measured cytotoxicity at 70.5 h value corresponds to "Cc1cc(S(C)(=O)=O)c(C)c(S(=O)(=O)N2CCCCCC2)c1" ?
Key: -7.91
